Data provenance: patent US6323219A

# TEST_SYSTEM: Human Skin Chymase (Homo sapiens, UniProt P23946)
# Construct: purchased Cortex Biochem CP1129; host or cells: human skin
# Sequence (P23946 22-247): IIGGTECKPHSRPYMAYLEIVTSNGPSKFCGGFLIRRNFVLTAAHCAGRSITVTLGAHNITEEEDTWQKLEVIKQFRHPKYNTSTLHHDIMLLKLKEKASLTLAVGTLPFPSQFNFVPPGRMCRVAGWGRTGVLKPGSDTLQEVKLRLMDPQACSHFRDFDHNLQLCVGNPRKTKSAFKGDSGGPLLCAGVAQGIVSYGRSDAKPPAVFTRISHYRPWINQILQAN
# EXPERIMENT: Chymase 10 μM Screen Method
# Assay type: biochemical
# EXPERIMENTAL_SETUP: 10 μM, room temperature, 5.0 nM enzyme, 3 hours; read-out: Chymase % Inhibition (10 μM)
MEASUREMENT_TYPE: inhibition at 10 µM (%)
Numbers only; they are read as %.

Worked cases, inhibition at 10 µM given:
> print(dat)
                                   compound  observed
1  CN[C@H](Cc1ccccc1)C(=O)N1CCC[C@H]1C(=O)N[C@@H](CCCNC(=N)N)C(=O)c1nc2c(ccc3ccccc32)s1 [Compound 52]         4
2  CN[C@H](Cc1ccccc1)C(=O)N1CCC[C@H]1C(=O)N[C@@H](CCCNC(=N)N)C(=O)c1nc2ccc(C(=O)OC)cc2s1 [Compound 12]         2
3  CN[C@H](Cc1ccccc1)C(=O)N1CCC[C@H]1C(=O)N[C@@H](CCCNC(=N)N)C(=O)c1nc2ccccc2s1 [Compound 1]         2
4  CN[C@H](Cc1c(F)c(F)c(F)c(F)c1F)C(=O)N1CCC[C@H]1C(=O)N[C@@H](CCCNC(=N)N)C(=O)c1nc2ccccc2s1 [Compound 30]         6

--- query ---
Reported inhibition at 10 µM for N=C(N)NCCC[C@H](NC(=O)C1CCCC1)C(=O)c1nc2ccccc2s1 [Compound 31] : what is it? 0

---

# TEST_SYSTEM: Human Skin Chymase (Homo sapiens, UniProt P23946)
# Construct: purchased Cortex Biochem CP1129; host or cells: human skin
# EXPERIMENT: Chymase 10 μM Screen Method
# Format: biochemical
# EXPERIMENTAL_SETUP: 10 μM, room temperature, 5.0 nM enzyme, 3 hours; read-out: Chymase % Inhibition (10 μM)
MEASUREMENT_TYPE: inhibition at 10 µM (%)
Your answer is read as %, so omit the unit and give the number.

> print(dat)
                                   compound                               test.system     measurement.type  readout.unit  observed
1  CN[C@H](Cc1ccccc1)C(=O)N1CCC[C@H]1C(=O)N[C@@H](CCCOC)C(=O)c1nc2ccccc2s1 [Compound 53]  Human Skin Chymase (Homo sapiens, UniProt P23946)  inhibition at 10 µM             %         5
2  CN[C@H](Cc1ccccc1)C(=O)N1CCC[C@H]1C(=O)N[C@@H](CCCNC(=N)N)C(=O)c1nc2ccccc2[nH]1 [Compound 35]  Human Skin Chymase (Homo sapiens, UniProt P23946)  inhibition at 10 µM             %         4
3  CN[C@H](Cc1ccccc1)C(=O)N1CCC[C@H]1C(=O)N[C@@H](CCCNC(=N)N)C(=O)c1nc2ccc(F)cc2s1 [Compound 17]  Human Skin Chymase (Homo sapiens, UniProt P23946)  inhibition at 10 µM             %         3

Requested read-out: inhibition at 10 µM. Entry: CCCC[C@H](NC(=O)[C@@H]1CCCN1C(=O)[C@@H](Cc1ccccc1)NC)C(=O)c1nc2ccccc2s1 [Compound 39] 37
